These measurements were taken from patent US20250285714A1.

experimental.conditions: human
Reported values of MEI, AUC* % mass for individual entries

Worked cases, answers included:
compound="CC1(C)C2CCC1(C)C(O)C2 (stereo not shown) [Borneol]" readout_kind="MEI, AUC* % mass" result=0.10
compound="CC1=CCC2CC1C2(C)C (stereo not drawn) [α-pinene]" readout_kind="MEI, AUC* % mass" result=65.77
compound="C=CC(C)(O)CCC=C(C)C (stereo not shown) [Linalool]" readout_kind="MEI, AUC* % mass" result=0.03

Pending compound:
Asked: Please look up its MEI, AUC* % mass: CCCCCc1cc(O)c(C/C=C(\C)CCC=C(C)C)c(O)c1 [Cannabigerol (CBG), Cannabigerol]
Given back: 4.89
